Molecular target: c-Abl-T315I (Homo sapiens, UniProt P00519, T315I)
Assay: Radiometric filter binding kinase assay
quantity: IC50

**Query** Retrieve IC50 on c-Abl-T315I (Homo sapiens, UniProt P00519, T315I); query `CCc1nc2nc(Nc3ccc4nc(OCCN5CCOCC5)ccc4c3)nc(NC(C)(C)C)c2[nH]1`
**Result** > 10 µM

====

Protein target, amino acids: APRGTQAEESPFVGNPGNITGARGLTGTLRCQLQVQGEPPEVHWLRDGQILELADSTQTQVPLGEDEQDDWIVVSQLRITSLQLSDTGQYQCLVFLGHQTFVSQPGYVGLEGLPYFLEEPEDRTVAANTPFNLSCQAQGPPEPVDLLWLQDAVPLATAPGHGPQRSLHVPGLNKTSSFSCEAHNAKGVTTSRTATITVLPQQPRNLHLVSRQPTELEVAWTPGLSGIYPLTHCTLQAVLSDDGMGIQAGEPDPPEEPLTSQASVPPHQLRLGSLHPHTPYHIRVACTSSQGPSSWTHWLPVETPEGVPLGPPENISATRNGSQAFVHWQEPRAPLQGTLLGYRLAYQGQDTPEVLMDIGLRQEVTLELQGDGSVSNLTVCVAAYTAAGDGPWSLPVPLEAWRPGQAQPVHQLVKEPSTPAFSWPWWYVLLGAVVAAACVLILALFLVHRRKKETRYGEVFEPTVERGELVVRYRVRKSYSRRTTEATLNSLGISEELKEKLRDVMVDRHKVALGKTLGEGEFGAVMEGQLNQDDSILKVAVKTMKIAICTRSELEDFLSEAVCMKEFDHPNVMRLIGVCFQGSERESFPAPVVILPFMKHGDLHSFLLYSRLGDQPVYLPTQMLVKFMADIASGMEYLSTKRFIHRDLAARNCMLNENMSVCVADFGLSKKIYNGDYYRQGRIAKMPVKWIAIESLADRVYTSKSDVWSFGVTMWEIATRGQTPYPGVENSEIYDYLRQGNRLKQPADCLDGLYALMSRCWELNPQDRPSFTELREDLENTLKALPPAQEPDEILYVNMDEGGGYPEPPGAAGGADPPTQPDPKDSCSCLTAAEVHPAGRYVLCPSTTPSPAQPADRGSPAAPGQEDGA
quantity: IC50

**Query** Respond only with IC50 recorded for `CCc1nc2nc(Nc3ccc4nc(OCCN5CCOCC5)ccc4c3)nc(NC(C)(C)C)c2[nH]1`
**Result** > 10 µM

====

Target: BRAF-V600E (Homo sapiens, UniProt P15056, V600E)
Sequence (P15056 whole entry V600E): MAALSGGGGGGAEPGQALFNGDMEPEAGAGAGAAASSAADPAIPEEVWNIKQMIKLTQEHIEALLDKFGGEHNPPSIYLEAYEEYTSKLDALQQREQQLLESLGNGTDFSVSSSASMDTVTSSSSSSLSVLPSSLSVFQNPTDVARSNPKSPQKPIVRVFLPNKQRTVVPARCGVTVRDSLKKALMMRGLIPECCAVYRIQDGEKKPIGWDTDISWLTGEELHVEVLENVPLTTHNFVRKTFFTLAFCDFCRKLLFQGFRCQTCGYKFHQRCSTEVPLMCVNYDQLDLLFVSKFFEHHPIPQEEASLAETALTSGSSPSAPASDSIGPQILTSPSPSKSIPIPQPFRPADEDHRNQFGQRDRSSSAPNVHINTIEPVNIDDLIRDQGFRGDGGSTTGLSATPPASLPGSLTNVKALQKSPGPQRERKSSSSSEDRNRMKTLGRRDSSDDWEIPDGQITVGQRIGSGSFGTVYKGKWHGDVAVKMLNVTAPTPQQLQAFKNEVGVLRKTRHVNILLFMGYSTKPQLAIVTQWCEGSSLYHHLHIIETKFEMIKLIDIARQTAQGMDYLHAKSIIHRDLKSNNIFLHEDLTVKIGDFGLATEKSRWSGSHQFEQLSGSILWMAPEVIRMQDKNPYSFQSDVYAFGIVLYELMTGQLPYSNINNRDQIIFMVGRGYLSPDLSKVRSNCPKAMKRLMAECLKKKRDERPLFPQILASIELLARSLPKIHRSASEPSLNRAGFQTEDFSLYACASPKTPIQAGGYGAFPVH
Assay: Radiometric filter binding kinase assay
quantity: IC50

**Query** Respond only with IC50 recorded for CCc1nc2nc(Nc3ccc4nc(OCCN5CCOCC5)ccc4c3)nc(NC(C)(C)C)c2[nH]1 [QAP 1]
**Result** > 10 µM

====

Target: CDK1/CycB (Homo sapiens)
Sequence (P06493 whole entry, species assumed): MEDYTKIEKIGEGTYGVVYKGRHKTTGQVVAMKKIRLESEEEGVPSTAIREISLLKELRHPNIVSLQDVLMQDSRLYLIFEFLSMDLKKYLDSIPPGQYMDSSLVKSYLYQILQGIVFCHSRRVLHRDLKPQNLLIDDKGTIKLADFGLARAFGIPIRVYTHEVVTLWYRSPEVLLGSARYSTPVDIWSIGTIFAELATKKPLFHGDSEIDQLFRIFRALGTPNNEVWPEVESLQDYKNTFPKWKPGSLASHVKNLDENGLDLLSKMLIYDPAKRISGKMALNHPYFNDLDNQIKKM
Sequence (P14635 whole entry partner, species assumed): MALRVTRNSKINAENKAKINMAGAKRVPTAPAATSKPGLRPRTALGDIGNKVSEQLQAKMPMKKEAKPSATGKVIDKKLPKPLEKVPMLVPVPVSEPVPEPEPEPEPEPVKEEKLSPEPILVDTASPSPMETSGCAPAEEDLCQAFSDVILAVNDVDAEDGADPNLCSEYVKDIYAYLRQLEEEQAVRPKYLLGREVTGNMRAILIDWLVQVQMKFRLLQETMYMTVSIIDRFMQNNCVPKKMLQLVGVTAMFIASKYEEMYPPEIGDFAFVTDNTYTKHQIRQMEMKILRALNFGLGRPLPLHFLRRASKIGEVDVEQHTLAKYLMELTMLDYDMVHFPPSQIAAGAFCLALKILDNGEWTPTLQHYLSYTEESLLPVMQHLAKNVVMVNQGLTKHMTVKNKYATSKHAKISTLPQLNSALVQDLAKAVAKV
Experiment: Radiometric filter binding kinase assay
pIC50: −log10 of the molar value.
quantity: pIC50

**Query** Respond only with pIC50 recorded for `CCc1nc2nc(Nc3ccc4nc(OCCN5CCOCC5)ccc4c3)nc(NC(C)(C)C)c2[nH]1`
**Result** < 5.00

====

Biological target: PDK1 (Homo sapiens, UniProt O15530)
Sequence (O15530 1-556): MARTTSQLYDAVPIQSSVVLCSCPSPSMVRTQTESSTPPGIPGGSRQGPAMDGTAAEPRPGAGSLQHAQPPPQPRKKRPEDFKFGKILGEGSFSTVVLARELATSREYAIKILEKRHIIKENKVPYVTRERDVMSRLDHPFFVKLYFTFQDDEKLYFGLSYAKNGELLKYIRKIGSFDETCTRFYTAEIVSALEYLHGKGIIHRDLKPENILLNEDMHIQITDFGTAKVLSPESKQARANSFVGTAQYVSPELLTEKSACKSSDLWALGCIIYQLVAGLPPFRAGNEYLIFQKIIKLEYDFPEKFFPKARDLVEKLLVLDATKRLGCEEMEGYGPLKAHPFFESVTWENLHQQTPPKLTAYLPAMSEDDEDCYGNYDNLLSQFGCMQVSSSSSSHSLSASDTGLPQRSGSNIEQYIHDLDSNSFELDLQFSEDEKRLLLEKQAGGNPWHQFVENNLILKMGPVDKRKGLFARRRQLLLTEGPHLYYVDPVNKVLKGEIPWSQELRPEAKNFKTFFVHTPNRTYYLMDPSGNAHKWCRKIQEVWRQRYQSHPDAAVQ
quantity: IC50

**Query** Respond only with IC50 recorded for CCc1nc2nc(Nc3ccc4nc(OCCN5CCOCC5)ccc4c3)nc(NC(C)(C)C)c2[nH]1 [QAP 1]
**Result** > 10 µM

====

Biological target: c-Met (Homo sapiens)
Sequence (P08581 25-1390): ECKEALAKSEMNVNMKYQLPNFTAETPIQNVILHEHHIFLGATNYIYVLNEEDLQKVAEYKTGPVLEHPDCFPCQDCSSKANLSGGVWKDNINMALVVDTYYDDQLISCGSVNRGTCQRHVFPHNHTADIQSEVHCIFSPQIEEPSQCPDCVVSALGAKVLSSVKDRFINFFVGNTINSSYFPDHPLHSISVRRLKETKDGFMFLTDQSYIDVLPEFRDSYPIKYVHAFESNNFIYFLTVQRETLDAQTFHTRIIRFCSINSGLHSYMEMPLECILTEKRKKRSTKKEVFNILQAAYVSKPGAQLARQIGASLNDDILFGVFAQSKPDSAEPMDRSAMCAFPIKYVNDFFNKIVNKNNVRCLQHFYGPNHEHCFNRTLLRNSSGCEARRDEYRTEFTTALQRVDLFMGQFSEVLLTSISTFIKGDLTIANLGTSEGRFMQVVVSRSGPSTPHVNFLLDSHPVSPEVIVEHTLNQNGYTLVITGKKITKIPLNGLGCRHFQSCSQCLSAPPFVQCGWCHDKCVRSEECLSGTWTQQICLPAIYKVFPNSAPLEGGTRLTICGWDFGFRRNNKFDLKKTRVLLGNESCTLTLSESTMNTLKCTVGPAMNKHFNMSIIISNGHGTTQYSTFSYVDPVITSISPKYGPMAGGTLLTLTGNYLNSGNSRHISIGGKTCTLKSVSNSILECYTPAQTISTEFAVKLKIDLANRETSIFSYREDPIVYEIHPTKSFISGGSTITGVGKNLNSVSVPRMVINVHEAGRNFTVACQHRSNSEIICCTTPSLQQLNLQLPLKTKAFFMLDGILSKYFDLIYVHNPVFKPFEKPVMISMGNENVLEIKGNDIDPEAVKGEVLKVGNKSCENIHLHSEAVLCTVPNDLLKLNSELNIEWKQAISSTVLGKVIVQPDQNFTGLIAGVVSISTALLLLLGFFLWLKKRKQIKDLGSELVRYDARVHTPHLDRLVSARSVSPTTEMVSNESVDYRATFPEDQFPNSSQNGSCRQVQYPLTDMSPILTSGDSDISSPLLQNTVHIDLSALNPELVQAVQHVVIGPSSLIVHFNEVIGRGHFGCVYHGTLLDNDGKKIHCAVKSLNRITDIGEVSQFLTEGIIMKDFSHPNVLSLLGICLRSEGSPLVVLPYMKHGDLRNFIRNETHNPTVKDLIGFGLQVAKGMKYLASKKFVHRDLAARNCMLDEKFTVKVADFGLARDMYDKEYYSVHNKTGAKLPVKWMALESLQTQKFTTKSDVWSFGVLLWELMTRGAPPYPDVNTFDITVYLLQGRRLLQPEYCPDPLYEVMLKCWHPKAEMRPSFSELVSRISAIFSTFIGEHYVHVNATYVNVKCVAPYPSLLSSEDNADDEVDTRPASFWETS
quantity: IC50

**Query** Retrieve IC50 on c-Met (Homo sapiens); query CCc1nc2nc(Nc3ccc4nc(OCCN5CCOCC5)ccc4c3)nc(NC(C)(C)C)c2[nH]1 [QAP 1]
**Result** > 10 µM

====

Target: c-Abl (Homo sapiens, UniProt P00519)
pIC50: −log10 of the molar value.
quantity: pIC50

**Query** Retrieve pIC50 on c-Abl (Homo sapiens, UniProt P00519); query `CCc1nc2nc(Nc3ccc4nc(OCCN5CCOCC5)ccc4c3)nc(NC(C)(C)C)c2[nH]1`
**Result** < 5.00

====

Biological target: HER-1 (Homo sapiens)
Sequence (P00533 25-1210, species assumed): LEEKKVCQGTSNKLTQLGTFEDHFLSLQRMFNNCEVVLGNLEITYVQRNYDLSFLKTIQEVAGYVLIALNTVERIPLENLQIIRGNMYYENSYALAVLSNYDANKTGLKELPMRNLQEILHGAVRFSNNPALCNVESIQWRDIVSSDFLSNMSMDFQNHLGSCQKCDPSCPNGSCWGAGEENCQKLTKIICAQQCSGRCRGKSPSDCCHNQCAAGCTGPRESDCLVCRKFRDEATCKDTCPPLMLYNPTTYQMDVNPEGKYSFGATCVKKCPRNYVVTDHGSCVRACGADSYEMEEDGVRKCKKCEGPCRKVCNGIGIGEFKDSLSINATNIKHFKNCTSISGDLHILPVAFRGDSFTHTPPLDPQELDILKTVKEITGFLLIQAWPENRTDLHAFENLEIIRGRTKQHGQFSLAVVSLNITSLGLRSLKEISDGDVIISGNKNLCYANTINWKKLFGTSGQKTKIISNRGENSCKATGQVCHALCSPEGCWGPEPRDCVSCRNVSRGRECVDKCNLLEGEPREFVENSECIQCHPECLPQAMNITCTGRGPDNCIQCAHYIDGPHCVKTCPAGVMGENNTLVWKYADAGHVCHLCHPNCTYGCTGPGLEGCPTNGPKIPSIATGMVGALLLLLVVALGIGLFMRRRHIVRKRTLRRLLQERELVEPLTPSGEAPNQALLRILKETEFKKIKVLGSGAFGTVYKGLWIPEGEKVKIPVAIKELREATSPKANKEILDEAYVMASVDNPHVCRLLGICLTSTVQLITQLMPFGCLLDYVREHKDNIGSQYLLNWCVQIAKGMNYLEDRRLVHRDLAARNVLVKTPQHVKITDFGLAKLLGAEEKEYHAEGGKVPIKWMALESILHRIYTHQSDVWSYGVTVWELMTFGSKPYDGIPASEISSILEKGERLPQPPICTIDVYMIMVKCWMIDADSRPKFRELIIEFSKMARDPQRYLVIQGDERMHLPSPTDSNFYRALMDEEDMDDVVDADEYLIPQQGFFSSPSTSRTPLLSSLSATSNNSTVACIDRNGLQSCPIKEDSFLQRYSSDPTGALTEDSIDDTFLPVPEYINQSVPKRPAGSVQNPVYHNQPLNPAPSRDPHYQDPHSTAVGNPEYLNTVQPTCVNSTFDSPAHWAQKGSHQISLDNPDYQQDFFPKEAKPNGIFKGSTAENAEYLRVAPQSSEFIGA
pIC50: −log10 of the molar value.
quantity: pIC50

**Query** Respond only with pIC50 recorded for `CCc1nc2nc(Nc3ccc4nc(OCCN5CCOCC5)ccc4c3)nc(NC(C)(C)C)c2[nH]1`
**Result** < 5.00

====

Molecular target: PKB
Sequence (P31749 whole entry): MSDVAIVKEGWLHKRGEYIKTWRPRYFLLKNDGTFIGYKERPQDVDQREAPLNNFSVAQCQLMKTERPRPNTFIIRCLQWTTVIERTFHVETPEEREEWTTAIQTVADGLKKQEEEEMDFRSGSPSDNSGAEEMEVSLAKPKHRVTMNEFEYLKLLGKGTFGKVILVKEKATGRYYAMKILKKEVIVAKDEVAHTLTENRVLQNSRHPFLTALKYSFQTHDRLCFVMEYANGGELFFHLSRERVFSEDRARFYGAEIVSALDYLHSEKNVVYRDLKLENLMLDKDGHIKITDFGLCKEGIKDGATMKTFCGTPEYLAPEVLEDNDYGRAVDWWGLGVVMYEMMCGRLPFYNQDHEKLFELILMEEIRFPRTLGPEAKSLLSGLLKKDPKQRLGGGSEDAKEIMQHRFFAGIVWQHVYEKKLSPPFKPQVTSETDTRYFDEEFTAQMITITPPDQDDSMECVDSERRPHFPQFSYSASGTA
Assay: Radiometric filter binding kinase assay
Description: Based on homology structural models of the target, a purine scaffold was designed interactively using the Macromodel modeling software. The designed purine scaffold was subsequently used as a substructure query to search the Novartis compound collection. […] The data were analyzed by non-linear regression analysis using the equations corresponding to competitive, uncompetitive, and mixed inhibition (see Methods) and a statistical analysis (F-test; p ≤ 0.05) was carried out to identify the best model. […]
pIC50: −log10 of the molar value.
quantity: pIC50

**Query** Respond only with pIC50 recorded for `CCc1nc2nc(Nc3ccc4nc(OCCN5CCOCC5)ccc4c3)nc(NC(C)(C)C)c2[nH]1`
**Result** < 5.00
